biological target: SYK kinase (Homo sapiens)
pIC50: −log10 of the molar value.
Observable: pIC50

Illustrative cases are given below, each with its answer.
# Molecule, Result
records = [
    ("COc1ccc2nc(Nc3cnn(C4CCOCC4)c3)c3n[nH]cc3c2c1 [Example 85]", "6.00 to 7.00"),
    ("CS(=O)(=O)c1ccc2nc(Nc3ccc(N4CCOC4=O)cc3)c3[nH]ncc3c2c1 [Example 76]", "6.00 to 7.00"),
    ("CS(=O)(=O)c1ccc2nc(Nc3ccc(C(=O)N4CCOCC4)c(F)c3)c3[nH]ncc3c2c1 [Example 175]", "6.00 to 7.00"),
]

From here, focus on the item given below.
pIC50 measured on CS(=O)(=O)c1ccc2c(c1)nc(Nc1cnn(C3CCOCC3)c1)c1[nH]ncc12 [Example 120] = 7.00 to 8.00

====

biological target: LRRK2 (Homo sapiens, UniProt Q5S007); test: LRRK2-LRRK2 G2019S-Assay (LanthaScreen Eu Kinase Binding Assay); details: 5 nM LRRK2, 10 nM tracer 236, 2 nM EU-Anti-GST antibody, 1 h at RT; read-out: LRRK2 Activities: IC50
Sequence (Q5S007 970-2527 limits assumed): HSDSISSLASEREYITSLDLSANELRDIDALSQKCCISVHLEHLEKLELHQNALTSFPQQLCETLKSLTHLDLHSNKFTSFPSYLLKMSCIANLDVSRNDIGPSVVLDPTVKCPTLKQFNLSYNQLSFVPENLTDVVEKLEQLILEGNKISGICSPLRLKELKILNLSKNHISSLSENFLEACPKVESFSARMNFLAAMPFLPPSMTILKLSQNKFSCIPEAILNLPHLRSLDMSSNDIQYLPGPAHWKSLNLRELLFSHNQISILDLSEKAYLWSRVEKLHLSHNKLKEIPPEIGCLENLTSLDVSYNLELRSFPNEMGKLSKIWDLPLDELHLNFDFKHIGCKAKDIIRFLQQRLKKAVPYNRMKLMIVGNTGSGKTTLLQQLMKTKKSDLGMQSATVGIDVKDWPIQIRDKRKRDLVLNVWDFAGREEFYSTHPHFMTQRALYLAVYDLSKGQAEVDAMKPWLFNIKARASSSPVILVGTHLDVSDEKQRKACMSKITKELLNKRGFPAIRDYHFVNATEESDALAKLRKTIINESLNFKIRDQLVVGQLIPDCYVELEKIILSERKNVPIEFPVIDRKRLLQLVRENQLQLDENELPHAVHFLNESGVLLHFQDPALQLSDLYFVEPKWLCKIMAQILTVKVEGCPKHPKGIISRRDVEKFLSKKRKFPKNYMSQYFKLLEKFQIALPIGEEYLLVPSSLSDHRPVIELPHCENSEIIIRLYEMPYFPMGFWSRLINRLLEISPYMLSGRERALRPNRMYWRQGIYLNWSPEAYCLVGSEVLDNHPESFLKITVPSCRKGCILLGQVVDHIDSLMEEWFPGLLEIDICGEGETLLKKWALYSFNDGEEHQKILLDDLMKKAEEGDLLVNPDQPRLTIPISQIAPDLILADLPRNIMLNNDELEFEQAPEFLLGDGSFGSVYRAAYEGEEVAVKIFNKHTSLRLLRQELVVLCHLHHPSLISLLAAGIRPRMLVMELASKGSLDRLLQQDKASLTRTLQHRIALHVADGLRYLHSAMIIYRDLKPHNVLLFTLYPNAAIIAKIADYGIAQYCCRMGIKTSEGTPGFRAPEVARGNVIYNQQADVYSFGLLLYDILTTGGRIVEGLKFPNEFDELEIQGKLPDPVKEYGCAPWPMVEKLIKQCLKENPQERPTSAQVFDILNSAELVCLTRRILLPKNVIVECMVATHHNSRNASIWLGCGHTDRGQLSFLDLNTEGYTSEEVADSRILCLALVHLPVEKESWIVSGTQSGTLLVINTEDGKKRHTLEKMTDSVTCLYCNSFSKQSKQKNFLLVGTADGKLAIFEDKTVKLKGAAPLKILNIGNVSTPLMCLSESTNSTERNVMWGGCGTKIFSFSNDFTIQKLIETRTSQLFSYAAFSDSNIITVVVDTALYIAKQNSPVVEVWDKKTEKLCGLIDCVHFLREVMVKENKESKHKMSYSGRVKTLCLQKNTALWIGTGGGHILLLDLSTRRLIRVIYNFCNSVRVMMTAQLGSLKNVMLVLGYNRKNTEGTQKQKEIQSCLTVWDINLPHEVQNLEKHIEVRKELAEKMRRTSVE
pIC50: −log10 of the molar value.
Observable: pIC50

# Smi, Tgt, Result
rows = [
    ("CS(=O)(=O)c1ccc2nc(Nc3cnn(C4(C#N)CCCCC4)c3)c3[nH]ncc3c2c1", "LRRK2 (Homo sapiens, UniProt Q5S007)", "> 8.00"),
    ("COc1cccc2nc(Nc3ccc(N4CCC(N5CCN(C)CC5)CC4)cc3)c3[nH]ncc3c12", "LRRK2 (Homo sapiens, UniProt Q5S007)", "7.00 to 8.00"),
    ("COc1cccc2nc(Nc3cnn(CC(C)C)c3)c3[nH]ncc3c12", "LRRK2 (Homo sapiens, UniProt Q5S007)", "> 8.00"),
    ("COCCn1ncc(Nc2nc3cccc(OC)c3c3cn[nH]c23)c1C(F)(F)F", "LRRK2 (Homo sapiens, UniProt Q5S007)", "6.00 to 7.00"),
    ("COc1ccc2nc(Nc3cnn(C(C)C)c3)c3[nH]ncc3c2c1", "LRRK2 (Homo sapiens, UniProt Q5S007)", "7.00 to 8.00"),
]

Observed pIC50, LRRK2 (Homo sapiens, UniProt Q5S007), `COc1cccc2nc(Nc3cnn(C4(C#N)CCCCC4)c3)c3[nH]ncc3c12` : > 8.00

Observed pIC50, LRRK2 (Homo sapiens, UniProt Q5S007), `COc1cc(OC)c2nc(Nc3ccc(N4CCOCC4)cc3)c3[nH]ncc3c2c1` : 7.00 to 8.00

Observed pIC50, LRRK2 (Homo sapiens, UniProt Q5S007), `COCCCn1cc(Nc2nc3ccc(S(C)(=O)=O)cc3c3cn[nH]c23)c(OC)n1` : 7.00 to 8.00

====

As shown below, each of these compounds has a reported pIC50 value.
biological target: LRRK2 (Homo sapiens); experiment: LRRK2-LRRK2 G2019S-Assay (LanthaScreen Eu Kinase Binding Assay); conditions: 5 nM LRRK2, 10 nM tracer 236, 2 nM EU-Anti-GST antibody, 1 h at RT; read-out: LRRK2 Activities: IC50
pIC50: −log10 of the molar value.

Illustrative cases are given below, each with its answer.
# Smi, Result
data = [
    ("COc1cccc2nc(Nc3cnn(C=C(C)C)c3)c3[nH]ncc3c12", "> 8.00"),
    ("COc1cccc2nc(Nc3ccc(N4CCOCC4)c(F)c3)c3[nH]ncc3c12", "7.00 to 8.00"),
    ("COCCCn1ncc(Nc2nc3cccc(OC)c3c3cn[nH]c23)c1Cl", "7.00 to 8.00"),
    ("COc1cccc2nc(Nc3cnn(C4CC4)c3)c3[nH]ncc3c12", "> 8.00"),
    ("CS(=O)(=O)c1ccc2nc(Nc3cnn(C4CCOCC4)c3Cl)c3[nH]ncc3c2c1", "> 8.00"),
    ("COc1nn(C2CCN(C(C)(C)C)CC2)cc1Nc1nc2ccc(S(C)(=O)=O)cc2c2cn[nH]c12", "7.00 to 8.00"),
    ("CN1CCN(c2ccc(Nc3nc4cccc(S(C)(=O)=O)c4c4cn[nH]c34)cn2)CC1", "6.00 to 7.00"),
    ("COCCn1ncc(Nc2nc3ccc(S(C)(=O)=O)cc3c3cn[nH]c23)c1Br", "7.00 to 8.00"),
]

pIC50 measured on `CN1CCN(C(=O)c2ccc(Nc3nc4ccc(S(C)(=O)=O)cc4c4cn[nH]c34)cc2)CC1` = 7.00 to 8.00

pIC50 measured on `CN1CCC(n2cc(Nc3nc4ccc(S(C)(=O)=O)cc4c4cn[nH]c34)cn2)CC1` = > 8.00

pIC50 measured on `CC(=O)Nc1cccc(Nc2nc3ccc(S(C)(=O)=O)cc3c3c[nH]nc23)c1` = 7.00 to 8.00

pIC50 measured on `COCCn1cc(Nc2nc3cccc(OC)c3c3cn[nH]c23)c(C(F)(F)F)n1` = 6.00 to 7.00

pIC50 measured on `COc1cccc2nc(Nc3ccc4c(c3)COC4)c3[nH]ncc3c12` = 7.00 to 8.00

====

A set of molecules tested on SYK kinase (Homo sapiens), with measured IC50:

# Molecule, Tgt, IC50
data = [
    ("CN1CCN(C(=O)c2ccc(Nc3nc4ccc(S(C)(=O)=O)cc4c4cn[nH]c34)cc2)CC1 [Example 65]", "SYK kinase (Homo sapiens)", "10 to 100 nM"),
    ("COCCn1cc(Nc2nc3cc(S(C)(=O)=O)ccc3c3cn[nH]c23)cn1 [Example 170]", "SYK kinase (Homo sapiens)", "100 to 1000 nM"),
    ("CC(=O)N1CCC(n2cc(Nc3nc4ccc(S(C)(=O)=O)cc4c4cn[nH]c34)cn2)CC1 [Example 115]", "SYK kinase (Homo sapiens)", "< 10 nM"),
    ("COCCCn1cc(Nc2nc3c(OC)cc(OC)cc3c3cn[nH]c23)cn1 [Example 290]", "SYK kinase (Homo sapiens)", "100 to 1000 nM"),
    ("CSc1ccc2nc(Nc3ccc4c(c3)CN(C)C4)c3[nH]ncc3c2c1 [Example 49]", "SYK kinase (Homo sapiens)", "100 to 1000 nM"),
    ("COc1cccc2nc(Nc3cnn(CCF)c3)c3[nH]ncc3c12 [Example 253]", "SYK kinase (Homo sapiens)", "100 to 1000 nM"),
    ("COCCn1cc(Nc2nc3cccc(OC)c3c3c[nH]nc23)cn1 [Example 116]", "SYK kinase (Homo sapiens)", "100 to 1000 nM"),
    ("COc1ccc2nc(Nc3ccc4[nH]c(SC)nc4c3)c3n[nH]cc3c2c1 [Example 56]", "SYK kinase (Homo sapiens)", "100 to 1000 nM"),
    ("COc1ccc2nc(Nc3cnn(C4CCNC4)c3)c3n[nH]cc3c2c1 (centres unmarked) [Example 312]", "SYK kinase (Homo sapiens)", "< 10 nM"),
    ("COc1cccc2nc(Nc3cnn(C4CCN(C(C)=O)CC4)c3)c3[nH]ncc3c12 [Example 117]", "SYK kinase (Homo sapiens)", "100 to 1000 nM"),
]

IC50 measured on COc1ccc2nc(Nc3cnn(C4CCN(C(C)(C)C)CC4)c3)c3[nH]ncc3c2c1 [Example 300] = 100 to 1000 nM

IC50 measured on COCCn1cc(Nc2nc3ccc(S(C)(=O)=O)cc3c3cn[nH]c23)c(C#N)n1 [Example 248] = 100 to 1000 nM

====

A set of molecules tested on SYK kinase (Homo sapiens), with measured pIC50:
pIC50: −log10 of the molar value.

# Molecule, pIC50
data = [
    ("COc1cccc2nc(Nc3cnn(C4CCN(C(C)(C)C)CC4)c3)c3[nH]ncc3c12 [Example 206]", "7.00 to 8.00"),
    ("COCCn1cc(Nc2nc3cc(SC)ccc3c3cn[nH]c23)cn1 [Example 171]", "6.00 to 7.00"),
    ("COCCCn1cc(Nc2nc3ccc(OC)cc3c3cn[nH]c23)cn1 [Example 287]", "7.00 to 8.00"),
    ("CSc1ccc2nc(Nc3ccc(N4CCN(C(C)=O)CC4)cc3)c3[nH]ncc3c2c1 [Example 46]", "6.00 to 7.00"),
    ("COc1cccc2nc(Nc3cnn(C=C(C)C)c3)c3[nH]ncc3c12 [Example 259]", "6.00 to 7.00"),
    ("COc1ccc2nc(Nc3cnn(C(C)C(C)C)c3)c3n[nH]cc3c2c1 (centres unmarked) [Example 321]", "6.00 to 7.00"),
    ("CS(=O)(=O)c1ccc2nc(Nc3ccc4c(c3)NC(=O)CS4)c3n[nH]cc3c2c1 [Example 344]", "> 8.00"),
    ("COCCCn1ncc(Nc2nc3ccc(S(C)(=O)=O)cc3c3cn[nH]c23)c1OC [Example 232]", "6.00 to 7.00"),
    ("COc1cccc2nc(Nc3ccc(N4CCC(N5CCN(C)CC5)CC4)cc3)c3[nH]ncc3c12 [Example 21]", "6.00 to 7.00"),
    ("CC(C)(C)n1cc(Nc2nc3ccc(S(C)(=O)=O)cc3c3cn[nH]c23)cn1 [Example 195]", "7.00 to 8.00"),
]

Observed pIC50, SYK kinase (Homo sapiens), CSc1ccc2nc(Nc3ccc(CN(C)C)cc3)c3[nH]ncc3c2c1 [Example 48] : 7.00 to 8.00

Observed pIC50, SYK kinase (Homo sapiens), COc1ccc(Nc2nc3ccc(S(C)(=O)=O)cc3c3c[nH]nc23)cc1NC(C)=O [Example 332] : 7.00 to 8.00

Observed pIC50, SYK kinase (Homo sapiens), CS(=O)(=O)c1ccc2c(c1)nc(Nc1cnn(C3CC3)c1)c1[nH]ncc12 [Example 197] : 7.00 to 8.00

Observed pIC50, SYK kinase (Homo sapiens), CS(=O)(=O)c1ccc2nc(Nc3ccc(N4CCOCC4)cc3)c3[nH]ncc3c2c1 [Example 55] : > 8.00

Observed pIC50, SYK kinase (Homo sapiens), CC(C)(C#N)n1cc(Nc2nc3cc(S(C)(=O)=O)ccc3c3cn[nH]c23)cn1 [Example 191] : 6.00 to 7.00

Observed pIC50, SYK kinase (Homo sapiens), COCC(COC)n1cc(Nc2nc3ccc(OC)cc3c3c[nH]nc23)cn1 [Example 313] : 6.00 to 7.00

Observed pIC50, SYK kinase (Homo sapiens), CSc1ccc2nc(Nc3ccc4c(c3)NC(=O)CC4)c3[nH]ncc3c2c1 [Example 47] : > 8.00

Observed pIC50, SYK kinase (Homo sapiens), CC(=O)N1CCC(n2cc(Nc3nc4cc(S(C)(=O)=O)ccc4c4cn[nH]c34)cn2)CC1 [Example 168] : 7.00 to 8.00

Observed pIC50, SYK kinase (Homo sapiens), CS(=O)(=O)c1ccc2c(c1)nc(Nc1ccc(N3CCOCC3)cc1)c1[nH]ncc12 [Example 101] : 6.00 to 7.00
